target: DAPP1 (Homo sapiens, UniProt Q9UN19); construct: the DNA-tagged SH2 domain concentrations used in this study were <0.1 nM; made in house; host or cells: HEK293 (transient transfection; unpurified extract); test: biochemical; assay type: binding; conditions: read-out: percent of DMSO vehicle control
Sequence (Q9UN19 35-129 limits assumed): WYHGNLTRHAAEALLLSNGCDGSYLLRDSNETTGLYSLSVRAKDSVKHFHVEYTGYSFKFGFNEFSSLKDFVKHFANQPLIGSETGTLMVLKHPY
Non-standard residues stand in square brackets, D forms with d. Residues, ends and D or L forms follow the SMILES beside them. *: point of attachment. pY = N[C@@H](Cc1ccc(OP(=O)(O)O)cc1)C(=O)O; Caffeoyl = O=C(/C=C/c1ccc(O)c(O)c1)*
readout kind: percent of DMSO vehicle control at 10 µM (%)
Reply with just the number (in %).

These recorded examples may help you get a feel for the data.
CC[C@H](C)[C@H](NC(=O)[C@H](CCC(=O)O)NC(=O)[C@H](CCC(=O)O)NC(=O)[C@H](Cc1ccc(OP(=O)(O)O)cc1)NC(=O)/C=C/c1ccc(O)c(O)c1)C(=O)N[C@@H](CCC(=O)O)C(=O)O [Caffeic acid-pYEEIE] (Caffeoyl-[pY]EEIE-OH)    39.2
CC(=O)N[C@@H](Cc1ccc(CP(=O)(O)O)cc1)C(=O)NC1(C(=O)N[C@@H](CC(N)=O)C(=O)NCCCc2c(O)ccc3ccccc23)CCCCC1 [CGP78850]    136
NC(=O)CC[C@H](NC(=O)[C@@H]1CC[C@@H]2CCN(C(=O)CCCCCC#Cc3cccc4c3CN(C3CCC(=O)NC3=O)C4=O)C[C@H](NC(=O)c3cc4cc(C(F)(F)P(=O)(O)O)ccc4[nH]3)C(=O)N21)C(=O)NC(c1ccccc1)c1ccccc1 (stereo partly shown) [SD-36]    126

Alright, here's another compound for you.
Ask: Please give the measured percent of DMSO vehicle control at 10 µM for this compound: CC(=O)N1CC[C@H]2CC[C@@H](C(=O)N[C@@H](CCC(N)=O)C(=O)NC(c3ccccc3)c3ccccc3)N2C(=O)[C@@H](NC(=O)c2cc3cc(C(F)(F)P(=O)(O)O)ccc3[nH]2)C1 [SI-109]
Result: 149

---

Biological target: SHC4 (Homo sapiens, UniProt Q6S5L8)
Construct: made in house; host or cells: HEK293 (transient transfection), unpurified extract
Sequence (Q6S5L8 1-630): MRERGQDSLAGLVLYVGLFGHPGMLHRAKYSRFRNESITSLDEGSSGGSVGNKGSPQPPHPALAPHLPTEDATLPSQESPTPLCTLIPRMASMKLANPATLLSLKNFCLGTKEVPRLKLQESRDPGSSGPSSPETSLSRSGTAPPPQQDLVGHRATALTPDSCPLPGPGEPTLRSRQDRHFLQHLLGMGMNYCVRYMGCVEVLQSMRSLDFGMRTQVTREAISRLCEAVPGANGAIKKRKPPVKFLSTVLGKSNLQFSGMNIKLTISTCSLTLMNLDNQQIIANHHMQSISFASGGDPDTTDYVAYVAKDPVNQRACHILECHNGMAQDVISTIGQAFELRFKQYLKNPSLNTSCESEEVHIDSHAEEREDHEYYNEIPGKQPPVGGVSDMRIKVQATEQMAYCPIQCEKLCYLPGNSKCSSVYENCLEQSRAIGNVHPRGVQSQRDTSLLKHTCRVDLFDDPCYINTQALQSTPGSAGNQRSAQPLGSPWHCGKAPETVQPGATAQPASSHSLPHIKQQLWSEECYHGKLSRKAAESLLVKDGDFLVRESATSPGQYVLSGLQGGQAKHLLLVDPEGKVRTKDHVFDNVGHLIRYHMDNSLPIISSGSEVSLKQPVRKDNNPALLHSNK
Assay: biochemical
Assay type: binding
Details: read-out: percent of DMSO vehicle control
Non-standard residues stand in square brackets, D forms with d. Residues, ends and D or L forms follow the SMILES beside them. *: point of attachment. pY = N[C@@H](Cc1ccc(OP(=O)(O)O)cc1)C(=O)O; Caffeoyl = O=C(/C=C/c1ccc(O)c(O)c1)*
readout kind: remaining activity at 10 µM

These recorded examples may help you get a feel for the data.
CC(=O)N[C@@H](Cc1ccc(CP(=O)(O)O)cc1)C(=O)NC1(C(=O)N[C@@H](CC(N)=O)C(=O)NCCCc2c(O)ccc3ccccc23)CCCCC1    108%
CC(=O)N1CC[C@H]2CC[C@@H](C(=O)N[C@@H](CCC(N)=O)C(=O)NC(c3ccccc3)c3ccccc3)N2C(=O)[C@@H](NC(=O)c2cc3cc(C(F)(F)P(=O)(O)O)ccc3[nH]2)C1    136%

Ask: Please give the measured remaining activity at 10 µM for this compound: CC[C@H](C)[C@H](NC(=O)[C@H](CCC(=O)O)NC(=O)[C@H](CCC(=O)O)NC(=O)[C@H](Cc1ccc(OP(=O)(O)O)cc1)NC(=O)/C=C/c1ccc(O)c(O)c1)C(=O)N[C@@H](CCC(=O)O)C(=O)O [Caffeic acid-pYEEIE] (Caffeoyl-[pY]EEIE-OH)
Result: 0%

Ask: Try the compound NC(=O)CC[C@H](NC(=O)[C@@H]1CC[C@@H]2CCN(C(=O)CCCCCC#Cc3cccc4c3CN(C3CCC(=O)NC3=O)C4=O)C[C@H](NC(=O)c3cc4cc(C(F)(F)P(=O)(O)O)ccc4[nH]3)C(=O)N21)C(=O)NC(c1ccccc1)c1ccccc1 (stereo partly shown)
Result: 100%

---

target: STAT2 (Homo sapiens, UniProt P52630); construct: made in house; host or cells: HEK293 (transient transfection), unpurified extract; assay: biochemical; format: binding; conditions: primary screen, 10 μM; read-out: percent of DMSO vehicle control
Sequence (P52630 whole entry): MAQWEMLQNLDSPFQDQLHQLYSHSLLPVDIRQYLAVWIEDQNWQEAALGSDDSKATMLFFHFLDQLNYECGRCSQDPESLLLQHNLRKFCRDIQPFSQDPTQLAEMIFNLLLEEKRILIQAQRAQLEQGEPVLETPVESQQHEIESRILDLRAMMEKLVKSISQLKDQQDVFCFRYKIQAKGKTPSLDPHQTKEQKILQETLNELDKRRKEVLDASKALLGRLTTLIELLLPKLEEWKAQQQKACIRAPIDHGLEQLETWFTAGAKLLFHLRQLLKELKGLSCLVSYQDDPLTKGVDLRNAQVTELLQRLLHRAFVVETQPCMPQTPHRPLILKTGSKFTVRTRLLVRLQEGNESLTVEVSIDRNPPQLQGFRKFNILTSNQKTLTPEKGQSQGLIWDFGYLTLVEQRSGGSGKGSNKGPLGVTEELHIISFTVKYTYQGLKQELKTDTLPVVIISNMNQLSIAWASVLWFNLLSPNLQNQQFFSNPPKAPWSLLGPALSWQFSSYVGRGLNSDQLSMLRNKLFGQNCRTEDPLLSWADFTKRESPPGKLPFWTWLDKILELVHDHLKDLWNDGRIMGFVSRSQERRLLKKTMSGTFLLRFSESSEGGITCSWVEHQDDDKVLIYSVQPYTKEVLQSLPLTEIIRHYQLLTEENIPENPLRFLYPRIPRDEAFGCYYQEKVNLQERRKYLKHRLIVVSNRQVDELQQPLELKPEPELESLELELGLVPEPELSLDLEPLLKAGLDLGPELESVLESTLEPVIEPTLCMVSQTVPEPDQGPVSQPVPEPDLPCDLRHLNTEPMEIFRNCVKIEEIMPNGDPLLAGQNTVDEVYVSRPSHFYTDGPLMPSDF
readout kind: remaining activity at 10 µM

O=C(COc1ccc2cc(C(=O)Nc3ccccc3)ccc2c1)NCc1ccc(OP(=O)(O)O)c(OP(=O)(O)O)c1    153%

Ask: Please give the measured remaining activity at 10 µM for this compound: "O=C(CCl)Nc1cccc(CNC(=O)[C@H](Cc2ccc(OP(=O)(O)O)cc2)NC(=O)Cc2ccc(F)cc2)c1"
Result: 217%

Ask: Try the compound "CC(C)(C)[C@H](NC(=O)/C=C/c1ccc(OP(=O)(O)O)cc1)C(=O)N1CCC[C@H]1C(=O)N(c1ccccc1)c1ccc(I)cc1"
Result: 60.3%

Ask: Try the compound "C/C(=C\C(=O)N[C@H](C(=O)N1CCC[C@H]1C(=O)N(c1ccccc1)c1ccc(I)cc1)C(C)(C)C)c1ccc(OP(=O)(O)O)cc1"
Result: 35.1%

---

Target: SOCS6 (Homo sapiens, UniProt O14544)
Construct: made in house; host or cells: HEK293 (transient transfection), unpurified extract
Sequence (O14544 1-535): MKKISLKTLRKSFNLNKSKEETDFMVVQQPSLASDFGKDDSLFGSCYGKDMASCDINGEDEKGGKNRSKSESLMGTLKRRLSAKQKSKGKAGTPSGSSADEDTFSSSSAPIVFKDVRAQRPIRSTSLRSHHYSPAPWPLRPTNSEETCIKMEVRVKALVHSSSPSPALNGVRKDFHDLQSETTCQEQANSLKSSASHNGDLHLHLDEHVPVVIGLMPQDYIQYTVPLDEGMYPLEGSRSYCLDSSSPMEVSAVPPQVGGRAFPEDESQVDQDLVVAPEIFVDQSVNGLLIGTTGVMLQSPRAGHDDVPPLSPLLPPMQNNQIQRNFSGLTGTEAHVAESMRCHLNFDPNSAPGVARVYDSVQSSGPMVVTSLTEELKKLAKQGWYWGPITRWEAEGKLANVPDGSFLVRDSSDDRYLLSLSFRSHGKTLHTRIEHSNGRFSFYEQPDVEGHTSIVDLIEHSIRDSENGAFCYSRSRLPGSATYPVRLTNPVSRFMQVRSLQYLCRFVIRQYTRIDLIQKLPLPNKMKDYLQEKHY
Assay: biochemical
Type: binding
Settings: read-out: percent of DMSO vehicle control
Non-standard residues stand in square brackets, D forms with d. Residues, ends and D or L forms follow the SMILES beside them. *: point of attachment. pY = N[C@@H](Cc1ccc(OP(=O)(O)O)cc1)C(=O)O; Caffeoyl = O=C(/C=C/c1ccc(O)c(O)c1)*
Readings of remaining activity at 10 µM for the listed compounds
Reply with just the number (in %).

NC(=O)CC[C@H](NC(=O)[C@@H]1CC[C@@H]2CCN(C(=O)CCCCCC#Cc3cccc4c3CN(C3CCC(=O)NC3=O)C4=O)C[C@H](NC(=O)c3cc4cc(C(F)(F)P(=O)(O)O)ccc4[nH]3)C(=O)N21)C(=O)NC(c1ccccc1)c1ccccc1 (stereo partly shown) [SD-36]    57.2

Ask: Please give the measured remaining activity at 10 µM for this compound: CC[C@H](C)[C@H](NC(=O)[C@H](CCC(=O)O)NC(=O)[C@H](CCC(=O)O)NC(=O)[C@H](Cc1ccc(OP(=O)(O)O)cc1)NC(=O)/C=C/c1ccc(O)c(O)c1)C(=O)N[C@@H](CCC(=O)O)C(=O)O [Caffeic acid-pYEEIE] (Caffeoyl-[pY]EEIE-OH)
Result: 8.2

Ask: Try the compound CC(=O)N1CC[C@H]2CC[C@@H](C(=O)N[C@@H](CCC(N)=O)C(=O)NC(c3ccccc3)c3ccccc3)N2C(=O)[C@@H](NC(=O)c2cc3cc(C(F)(F)P(=O)(O)O)ccc3[nH]2)C1 [SI-109]
Result: 91.9

Ask: Try the compound CC(=O)N[C@@H](Cc1ccc(CP(=O)(O)O)cc1)C(=O)NC1(C(=O)N[C@@H](CC(N)=O)C(=O)NCCCc2c(O)ccc3ccccc23)CCCCC1 [CGP78850]
Result: 63.3
